Experiment: chemical genetic growth profiling, strain panel (AID 1159580);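 further: tested at 20 µM; growth read once vehicle control cultures reached saturation at 30 °C; 1 = growth at the plate median or of vehicle wells; lower values mean less growth of the strain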
Conditions: S. cerevisiae deletion strains, growth OD, locus YER110C, active compounds read low
About 2,000 (36%) of roughly 5,500 compounds were called active. Not shown: some 18% with an inconclusive outcome. The list shows a part of the results.
Recorded normalized growth for the following molecules
Give only the figure.

Molecule: CC(=O)Nc1c(I)cc(I)c(C(=O)O)c1I
normalized growth: 0.989
//
Molecule: Cn1c(=O)[nH]c2nc[nH]c2c1=O
normalized growth: 1
//
Molecule: NC(=NCCCCCCN=C(N)N=C(N)Nc1ccc(Cl)cc1)N=C(N)Nc1ccc(Cl)cc1
normalized growth: 0.0744
//
Molecule: CC(C)[C@@H]1CC[C@@H](C)C[C@H]1OC(=O)c1ccccc1
normalized growth: 1
//
Molecule: C[C@]12[C@H](O)CC3C(CC[C@@H]4C[C@@H](O)CC[C@]34C)[C@@]1(O)CC[C@@H]2C1=CC(=O)OC1 (stereo partly drawn)
normalized growth: 0.974

query: For Cn1c(=O)c2c(ncn2C)n(C)c1=O , what is its reported normalized growth?
result: 1.01

query: For CC(C)[C@@H]1CC[C@@H](C)CC1=O , what is its reported normalized growth?
result: 1.01

query: For O=C(/C=C/c1ccc(O)cc1)c1ccc(O)cc1O , what is its reported normalized growth?
result: 0.955

query: For CC(=O)Oc1c(C)c(C)c2c(c1C)CCC(C)(CCCC(C)CCCC(C)CCCC(C)C)O2 (stereo not drawn) , what is its reported normalized growth?
result: 0.99

query: For COc1ccc(/C=C/c2cc(O)cc(O[C@@H]3O[C@H](CO)[C@@H](O)[C@H](O)[C@H]3O)c2)cc1 , what is its reported normalized growth?
result: 0.987

query: For O=C(/C=C/c1ccccc1)c1ccc(O[C@@H]2O[C@H](CO)[C@@H](O)[C@H](O)[C@H]2O)cc1O , what is its reported normalized growth?
result: 0.869

query: For CCCCCC/C=C\CCCCCCCc1cccc(O)c1C(=O)O , what is its reported normalized growth?
result: 0.981

---

Assay: chemical genetic growth profiling, strain panel (AID 1159580);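 further: tested at 20 µM; growth read once vehicle control cultures reached saturation at 30 °C; 1 = growth at the plate median or of vehicle wells; lower values mean less growth of the strain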
Conditions: S. cerevisiae deletion strains, growth OD, locus YOR001W, strain rrp6, active compounds read low
The campaign covered roughly 5,500 compounds. About 2,000 (36%) were called active. Roughly 18% stayed inconclusive and do not appear here. The list shows a part of the results.
Assay readout: normalized growth
Give only the figure.

Consider the reported normalized growth for these compounds:
Smiles string: CC(=O)Nc1c(I)cc(I)c(C(=O)O)c1I
normalized growth: 0.976

Smiles string: CC[C@H]1OC(=O)[C@H](C)[C@@H](O[C@H]2C[C@@](C)(OC)[C@@H](O)[C@H](C)O2)[C@H](C)[C@@H](O[C@@H]2O[C@H](C)C[C@H](N(C)C)[C@H]2O)[C@](C)(O)C[C@@H](C)/C(=N/OCOCCOC)[C@H](C)[C@@H](O)[C@]1(C)O
normalized growth: 1.01

Smiles string: COc1ccc(NS(=O)(=O)c2ccc(N)cc2)nn1
normalized growth: 1

Smiles string: CN1CCC[C@H]1c1cccnc1
normalized growth: 1.02

Turning to the following compound.
query: For O=C(O)CC[N+](=O)[O-] , what is its reported normalized growth?
result: 1.03

The reported measurements were obtained from PubChem BioAssay AID1159580.
